molecular target: T1, GABARAPL1 (for BLI) (human, UniProt Q9H0R8 1-117); test: BLI; biotinylated LIR peptide immobilized on streptavidin biosensor, ATG8 in solution; 25 mM Tris pH 7.5, 150 mM NaCl, 0.5 mM TCEP, 0.1% Tween20, 1 mg/ml BSA; 25 °C; Kd from response against concentration; settings: both partners purified
T1 construct: human GABARAPL1 in the pAL plasmid (GST, 3C site)
pKd: −log10 of the molar value. *: point of attachment. Biotin = O=C1N[C@H]2[C@H](CS[C@H]2CCCCC(=O)*)N1; linker = not defined here
assay.readout: pKd

[[record]]
binder = "{Biotin-linker}-KEEEEDSTFTNISLADDIDH-NH2 (reading uncertain, SCOC isoform 3 aa 6-25; also called SCOC (WT) LIR domain peptide; SCOC LIR; source: synthetic peptide) [SCOC WT (aa 6–25) LIR peptide]"
value = 5.64


Reference for the values: paper PMC8202330
